- testDetails: Formation of 1,5-cz-[Ln(Lig)] from Lig and Ln^III ions (metal dependent click-zip), MOPS/NaOH buffer pH 7.0, analytical HPLC (Charts 1, 2)
- experimentalSetup: Sm^III; after 1 week at 80° C.; MOPS/NaOH buffer pH 7.0
parameterMeasured: conversion to 1,5-cz-[Ln(Lig)] with hydrolysed group in the side chain, Sm^III (%)
# output: bare number, implied unit %

Sample "C#Cc1cccc(CN2CCN(CC(=O)O)CCN(Cc3cc(C(=O)OC(C)(C)C)cc(CN=[N+]=[N-])n3)CCN(CC(=O)O)CC2)n1" — what was its conversion to 1,5-cz-[Ln(Lig)] with hydrolysed group in the side chain, Sm^III? 85

Reported conversion to 1,5-cz-[Ln(Lig)] with hydrolysed group in the side chain, Sm^III, compound "C#Cc1cccc(CN2CCN(CC(=O)O)CCN(Cc3cc(C(=O)OC)cc(CN=[N+]=[N-])n3)CCN(CC(=O)O)CC2)n1" : ____ 88

Requested read-out: conversion to 1,5-cz-[Ln(Lig)] with hydrolysed group in the side chain, Sm^III. Entry: "C#Cc1cccc(CN2CCN(CC(=O)O)CCN(Cc3cc(C(=O)OC(C)C)cc(CN=[N+]=[N-])n3)CCN(CC(=O)O)CC2)n1" 86

Fill in the blank: the reported conversion to 1,5-cz-[Ln(Lig)] with hydrolysed group in the side chain, Sm^III of "CC(C)(C#Cc1cccc(CN2CCN(CC(=O)O)CCN(Cc3cccc(CN=[N+]=[N-])n3)CCN(CC(=O)O)CC2)n1)NC(=O)OC(C)(C)C" is ____. 44

Just for reference, patent US20250147039A1 is where these values come from.
